biological target: Glycine receptor subunit alpha-1 (Homo sapiens); assay: Modulation of recombinant GlyR-alpha1 (unknown origin) expressed in HEK293 cells assessed as inhibition of glycine-induced current by automated planar patch-clamp automated electrophysiology assay
Sequence (P23415 whole entry): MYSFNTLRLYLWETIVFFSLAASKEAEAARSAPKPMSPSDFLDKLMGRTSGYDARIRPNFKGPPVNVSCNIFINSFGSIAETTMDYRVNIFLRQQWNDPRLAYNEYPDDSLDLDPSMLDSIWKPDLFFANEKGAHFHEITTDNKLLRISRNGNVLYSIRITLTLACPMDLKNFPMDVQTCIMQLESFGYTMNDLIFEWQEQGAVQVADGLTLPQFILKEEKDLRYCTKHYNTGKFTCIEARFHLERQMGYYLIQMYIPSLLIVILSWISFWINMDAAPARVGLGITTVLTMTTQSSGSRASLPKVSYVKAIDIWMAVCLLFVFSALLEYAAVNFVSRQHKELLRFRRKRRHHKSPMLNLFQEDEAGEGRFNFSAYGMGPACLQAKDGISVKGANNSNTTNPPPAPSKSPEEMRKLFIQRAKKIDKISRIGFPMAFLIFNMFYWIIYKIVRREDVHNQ
propertyMeasured: IC50 (µM)
Express the result in µM but write the number alone.

>>> df
                        smilesstructure  reportedvalue
0  CN1C(=O)NC(=O)/C1=C\c1c[nH]c2ccccc12            8.8

Consider now this further compound.
// sample CN1C(=N)N(C)[C@@]2(C1=O)c1[nH]c3ccccc3c1C[C@@]1(C(=O)N(C)C(=N)N1C)[C@@H]2c1c[nH]c2ccccc12 , its IC50 was 25.9

Sourced from ChEMBL document CHEMBL2396546
